# PROCEDURE DETAILS: Octan-1-ol-aqueous buffer partition coefficient, log P of the compound at 10 to 20 mg at pH 7.4 by UV-spectroscopic analysis
# Format: physicochemical
Each entry below carries its recorded logD.

MOLECULE: Cc1ccc(Cl)cc1N=C1NCCN1
logD: -0.3

MOLECULE: Cc1cc(Cl)ccc1N=C1NCCN1
logD: -0.58

MOLECULE: Clc1cc(Cl)c(N=C2NCCN2)cc1Cl
logD: 1.63

MOLECULE: Clc1ccc(Cl)c(N=C2NCCN2)c1
logD: 0.95

MOLECULE: Clc1cccc(Cl)c1NC1=NCCN1 [CLONIDINE]
logD: 0.83

MOLECULE: COc1cc(OC)c(N=C2NCCN2)cc1Cl
logD: -1.37

MOLECULE: COc1cc(C)ccc1N=C1NCCN1
logD: -1.56

MOLECULE: Clc1ccc(N=C2NCCN2)c(Cl)c1
logD: 0.69

MOLECULE: Cc1ccc(N=C2NCCN2)c(C)c1
logD: -1.46

MOLECULE: Cc1ccc(NC2=NCCN2)c(Cl)c1 [TOLONIDINE]
logD: -0.28
